Source: the MegaScale stability set (Tsuboyama et al. 2023)

B1: 1ZHC (parent)
chain: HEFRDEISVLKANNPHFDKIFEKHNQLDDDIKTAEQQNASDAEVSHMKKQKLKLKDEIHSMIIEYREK

variants of: B1; test: folding stability dG (cDNA display proteolysis); higher = more stable; details: PBS, room temperature
# folding stability dG >= 0.7 kcal/mol gives class 1, anything below gives class 0

- Variant code: "I63T"
  Group: "class 0"
- Variant code: "N14W"
  Group: "class 1"
- Variant code: "I58W"
  Group: "class 0"
- Variant code: "D41K"
  Group: "class 1"
- Variant code: "F17G"
  Group: "class 0"
- Variant code: "S45F"
  Group: "class 0"
- Variant code: "F21M"
  Group: "class 0"
- Variant code: "H59D"
  Group: "class 1"
- Variant code: "A12E"
  Group: "class 0"
- Variant code: "K19T"
  Group: "class 1"
- Variant code: "R4D"
  Group: "class 1"
- Variant code: "H16R"
  Group: "class 0"
